- SYSTEM: Neu5Ac(a2-8)Neu5Ac(a2-3)Gal(b1-3)GalNAc(b1-4)[Neu5Ac(a2-8)Neu5Ac(a2-3)]Gal(b1-4)Glc
- ASSAY_EXPLANATION: glycan array binding signal (z-score within array); higher = stronger binding
- CONDITIONS_USED: glycan notation: IUPAC condensed, linker removed
The sample as a whole holds a higher share of the strongest signals than the screen did.

| BINDER | glycan array binding signal (z-score) |
| --- | --- |
| DC-ASGPR S+GEE (Homo sapiens) (protein) MTRTYENFQYLENKVKVQGFKNGPLPLQSLLQRLRSGPCHLLLSLGLGLLLLVIICVVGFQNSKFQRDLVTLRTDFSNFTSNTVAEIQALTSQGSSLEETIASLKAEVEGFKQERQAVHSEMLLRVQQLVQDLKKLTCQVATINNNGEEASTEGTCCPVNWVEHQDSCYWFSHSGMSWAEAEKYCQLKNAHLVVINSREEQNFVQKYLGSAYTWMGLSDPEGAWKWVDGTDYATGFQNWKPGQPDDWQGHGLGGGEDCAHFHPDGRWNDDVCQRPYHWVCEAGLGQTSQESH | -0.342 |
| ECA (Erythrina cristagalli), P83410 (protein) VETISFSFSEFEPGNDNLTLQGAALITQSGVLQLTKINQNGMPAWDSTGRTLYTKPVHMWDSTTGTVASFETRFSFSIEQPYTRPLPADGLVFFMGPTKSKPAQGYGYLGVFNNSKQDNSYQTLAVEFDTFSNPWDPPQVPHIGIDVNSIRSIKTQPFQLDNGQVANVVIKYDAPSKILHVVLVYPSSGAIYTIAEIVDVKQVLPDWVDVGLSGATGAQRDAAETHDVYSWSFQASLPE | -0.352 |
| Agalectin (Anopheles gambiae) (protein) MSNRPFTAKFPRYPENGDEVFIRGKLKDDAKSFSVNFCLPRPAQVAEHQTPPYIALHFKTIYDERDDTSRVVLNWKNLQWQQEEVLDNYWHVDRSQTFRVVFRLHEDCIKVFVNSVDHPPDYQFPVQLPLDQIESIELWDDVEHVEEISFRYDNGNSY | 0.647 |
